Test system: KM12
Assay: NCI tumour cell line growth inhibition, 48 h
The source made the active and inactive calls. No stated cut-off is given here; in the data, active = GI50 up to about 1.1 µM and inactive = higher.
In this exercise, the only acceptable responses are active, inactive

Can you look up the reported call for CN(C)c1nc(N)nc(CS)n1 for me? inactive

Same question, O=C(Cc1ccccc1)NN1C(=O)/C(=C\c2ccc(O)cc2)S/C1=N\c1ccccc1 this time inactive

What would you report for Cc1cc(C)nc(NC(=S)Nc2ccccc2Cl)c1 ? inactive

How about O=C(c1ccccc1)c1ccc2[nH]c(-c3c(Cl)c(Cl)c(Cl)c(Cl)c3-c3nnc(-c4ccccc4)o3)nc2c1 ? inactive

What about this compound? OC1CCN2Cc3ccccc3N=C12 (stereo not drawn) inactive

***
Tell me the recorded outcome of this test for COC(=O)[C@]1(c2cc3ccccc3n2S(=O)(=O)c2ccccc2)CC2CCC1NC2 (stereo partly drawn) . inactive

Next up: COc1ccc2c(c1)CC1c3c(cc4c(c3-2)OCO4)CCN1C (stereo not drawn) inactive

Similarly, CC(C)(C)C1(O)Cc2ccccc2C(=O)O1 (stereo not drawn) ? inactive

Follow-up entry: CCc1cccc(C)c1NC(=O)CC1Sc2ccccc2NC1=O (stereo not drawn) inactive

Same read-out for CN(C)Cc1cc(C(=O)/C=C/c2cccc(Cl)c2)cc(CN(C)C)c1O ? inactive

###

Assignment: determine reported GI50 for the given compounds.
System: NCI/ADR-RES
Assay: NCI tumour cell line growth inhibition, 48 h
Active and inactive are the calls of the source. Rule as the data show it: active = GI50 up to about 1.1 µM and inactive = higher.

The following compounds have reported results that may help.
Can you look up the measured GI50 of Cc1cc(C)c(N[S+]([O-])c2cccc(Cl)c2)c(C)c1 (stereo not drawn) for me? > 100 µM (inactive)

// repeat for NC(=O)C1N=NSC1NC(=O)c1ccc([N+](=O)[O-])cc1 (stereo not drawn) and report 36.6 µM (inactive)

For the next question, use this compound.
GET /values?readout=GI50&item= COc1cc2c(cc1OC)[C@@H](Nc1ccc(C#N)cc1)C1COC(=O)[C@@H]1C2c1cc(OC)c(O)c(OC)c1 (stereo partly drawn) 40.2 µM (inactive)

###

System: MDA-N
Experiment: NCI tumour cell line growth inhibition, 48 h
Calls of active or inactive are those of the source. Rule as the data show it: active = GI50 up to about 1.1 µM and inactive = higher.
Respond only with the outcome that fits, drawn from T for active, F for inactive

Worked examples follow.
Could you please tell me the result logged for COc1cc(OC)c2nc(C)c3c(c2c1)OCC3 in this assay? F

And the next one, S=C(S)NCCN1CCNCC1 ? F

Next record, please: COc1cc(C2c3cc4c(cc3OC(NCCc3ccccc3)C2C)OCO4)cc(OC)c1OC (stereo unspecified) T

Same again, this time with Cc1ccc(Nc2nc(C)c(C(=O)CC(=O)C(=O)Nc3ccc(Cl)cc3)s2)cc1 F

Moving on to the next compound: CC(C)NCC(O)c1ccc(O)c2ncccc12 (stereo unspecified) F

***
Please indicate how the test categorized COc1cc(/C=N/c2nc3cc4sc(/N=C/c5cc(OC)c(OC)c(OC)c5)nc4cc3s2)cc(OC)c1OC . F

// same read-out, input: O=C(O)CSc1nnc(COc2ccc(Cl)cc2)n1-c1ccccc1 F

What about Cc1cc(C)c(N[S+]([O-])c2cccc(Cl)c2)c(C)c1 (stereo unspecified) ? F

Field entry: CCOC(=O)/C=C(/C(=O)OCC)n1ccc(=O)[nH]c1=O F

What do you get for Cc1n[nH]c(=O)n1/N=C\c1ccccc1 ? F

And O=C(Cc1ccccc1)NN1C(=O)/C(=C\c2ccc(O)cc2)S/C1=N\c1ccccc1 ? F

All figures here come from ChEMBL document CHEMBL1201862.
